Hey, just so you know, these numbers are from ChEMBL document CHEMBL3632592.

Record set of IC50 for target or system PC-12.
State just the number; it will be interpreted in nM.

Entry Nc1nc(Cl)nc2c1ncn2[C@@H]1O[C@H](COP(=O)(S)OP(=O)(O)O)[C@@H](O)[C@H]1O (stereo in doubt; 8B) : IC50 on PC-12 = 110

###

# TEST SUMMARY: Antioxidant activity assessed as ABTS radical scavenging activity after 7 mins
# Assay type: physicochemical
ASSAY METRIC: IC50 (µM)
API: value field is a number in µM; no unit string.

Reported IC50 of Nc1nc(Cl)nc2c1ncn2[C@@H]1O[C@H](COP(=O)(S)OP(=O)(O)O)[C@@H](O)[C@H]1O (stereo in doubt; 8A) : 11

Query Nc1nc(Cl)nc2c1ncn2[C@@H]1O[C@H](COP(=O)(O)OP(=O)(O)S)[C@@H](O)[C@H]1O (stereo not given in full) yields IC50 of 13

---
Sample Nc1ncnc2c1ncn2[C@@H]1O[C@H](COP(=O)(O)OP(=O)(O)OP(=O)(O)O)[C@@H](O)[C@H]1O [ADENOSINE TRIPHOSPHATE] ; IC50 observed: 60

Recorded IC50 (compound Nc1nc(Cl)nc2c1ncn2[C@@H]1O[C@H](COP(=O)(S)OP(=O)(O)O)[C@@H](O)[C@H]1O (stereo in doubt; 8B) ): 12

Consider Nc1ncnc2c1ncn2[C@@H]1O[C@H](COP(=O)(S)OP(=O)(O)O)[C@@H](O)[C@H]1O (stereo in doubt; 6B) . Its measured IC50 is 22

IC50 reading for Nc1ncnc2c1ncn2[C@@H]1O[C@H](COP(=O)(O)OP(=O)(O)O)[C@@H](O)[C@H]1O [ADENOSINE DIPHOSPHATE] : 30

Kindly note the recorded IC50 for Nc1ncnc2c1ncn2[C@@H]1O[C@H](COP(=O)(S)OP(=O)(O)O)[C@@H](O)[C@H]1O (stereo in doubt; 6A) , which is 20
